STUDY_TARGET: T1, CD27 protein (His-tagged, Sino Biological Inc. 10039-H08B1) (human, UniProt P26842 20-192)
T1 construct: bought; coated onto ELISA plates; also called human CD27; recombinant protein; not shown: His tag
T1 sequence (looked up): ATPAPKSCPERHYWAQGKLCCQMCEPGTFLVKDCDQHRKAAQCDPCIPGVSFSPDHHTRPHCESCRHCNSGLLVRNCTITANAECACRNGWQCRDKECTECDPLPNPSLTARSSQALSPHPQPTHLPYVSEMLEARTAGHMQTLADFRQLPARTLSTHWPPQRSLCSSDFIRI
EXPERIMENT_SUMMARY: ELISA on coated His-tagged CD27; also: test concentration or dose not given here
Recorded measurements of ELISA [abs. corr.], one per entry
PARAMETER: ELISA [abs. corr.] (abs. corr.)

* P018.S.06.A.E02 (antibody, V domains shown, V regions on human Ig constant parts; also called AB27_105) VH: QSLEESGGRLVTPGTPLTLTCTVSGIDLNNNAMTWVRQAPGEGLEWIGIISTADTTSYASWTKGRFTISKTSTTVDLKITSPTTEDTATYFCARAAYFSYGYFNLWGQGTLVTVSS VL: DIVMTQTPASVEAAVGGTVTIKCQASQNIGNALAWYQQKSGQPPKLLIYGASTLASGVPSRFKGSGSGTEFTLTISDLESADATTYFCQSYVYSDGNVFGGGTEVVVK | 3.3
* P018.S.06.A.B03 (antibody, V domains shown, V regions on human Ig constant parts; also called AB27_99) VH: QSVEESGGRLVTPGTPLTLTCTVSGFSLSSYDMIWVRQAPGKGLEWIGIIYLTDTTYYANWAKGRFTISKTSTTVDLKISSPTTEDTATYFCARHLDTSSGGFYFNLWGQGTLVTVSS VL: AQVLTQTPSSVSAAVGGTVTINCQASQSVYNSKILAWYQQKPGRPPKLLIYDASTLASGVPSRFKGSGSGTQFTLTISGVQSDDAATYFCQGEFTCTSADCIAFGGGTEVVVK | 3.59
* P018.S.08.A.D02 (antibody, V domains shown, V regions on human Ig constant parts; also called AB27_138) VH: QSVEESGGRLVTPGTPLTLTCTVSGFSLSHYHILWVRQAPGEGLKYIGITLNNGRIDYATWAKGRFTISKTSTTVDLEITSPTTEDTATYFCAKYFVSESYDLWGQGTLVTVSS VL: TAVLTQTPSPVSAAVGSTVTINCQASQSVYNDNWLSWYQQKPGQPPKLLIYGASTLASGVPSRFKGSGSGTQFTLTISDVQSGDAATYYCLGGYKDNSDNVFGGGTEVVVK | 3.37
* P018.S.04.A.B01 (antibody, V domains shown, V regions on human Ig constant parts; also called AB27_66) VH: QEQLVESGGDLVKPGGTLTLTCTASGFSFSSSYYMSWVRQAPGKGLEWIACIDTADAYTYYASWAKGRFTISKTSSTTVSLQMTSLTAADTATYFCARERIAYNTDYFNLWGPGTLVTVSS VL: AQVLTQTPSPVSAAVGGTVTISCQSSQSLYNYNNLAWYQQKPGQPPKLLIYSASNLASGVPSRFGGSGSGTQFTLTISDLQSDDAATYYCQGYYSGAVYTFGGGTEVVVK | 3.38
* P018.S.02.A.A06 (antibody, V domains shown, V regions on human Ig constant parts; also called AB27_28) VH: QSVEESGGRLVKPDESLTLTCTVSGIDLSTYAMGWVRQAPGKGLEYIGMISTGGSAYYASWAQGRFTISRTSTTVDLKMTSLTTEDTATYFCARLRDPYSYRTYFNLWGPGTLVTVSS VL: ALVMTQTPSSVEAAVGGTVTIKCQASLSISSALAWYQQKPGQRPKLLIYDASNLESGVPSRFKGSGSGAHFTLTVSDLESADAATYYCQGPYDTVNNNSFGGGTEVVVK | 3.13
